I'd appreciate it if you could supply polymerase ribozyme fitness (log ratio) values for the items below.
B1: TPR 5TU (parent)
chain: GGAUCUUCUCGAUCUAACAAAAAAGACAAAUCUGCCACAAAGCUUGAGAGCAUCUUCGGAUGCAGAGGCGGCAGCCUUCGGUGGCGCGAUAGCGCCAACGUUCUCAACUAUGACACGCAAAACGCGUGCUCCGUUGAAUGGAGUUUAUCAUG

Variants of: B1
Test: polymerase ribozyme fitness, log enrichment relative to wild type (log ratio); higher = more active; in vitro selection for triplet polymerase activity
Fewer inactive variants are shown than the library holds.
Answers are plain numbers.

Some entries whose results are on file:
{"var": "G58U C96A G126C", "testResult": 0.641}
{"var": "A16C A49U C85U U146C", "testResult": -2.7}
{"var": "U4G A29C C75A C96U A115U U148A", "testResult": -3.99}
{"var": "G83C C125A U144A", "testResult": -2.36}
{"var": "A52G U56A", "testResult": -0.876}
{"var": "A21U C57A A142U", "testResult": -0.38}
{"var": "G59A A60C", "testResult": -1.48}
{"var": "U31G G58A C85A C114G A115U", "testResult": -4.05}
{"var": "A37C C103G", "testResult": -3.6}
{"var": "A3G A60C C93U U145G", "testResult": -2.53}

I need polymerase ribozyme fitness (log ratio) for every entry listed below, if you could help.
1. U61A A89U
2. A21G A52G U102A
3. A137U G141U
4. A19U A23G U90G

[-0.941, -1.09, -3.93, -3.99]
